Form field: TGI (one value per entry).
System: MDA-MB-231 breast
Experiment: NCI tumour cell line growth inhibition, 48 h

compound | system.name | TGI
O=C(c1cccc2cc(O)ccc12)c1cn(CCN2CCOCC2)c2ccccc12 | MDA-MB-231 breast | 45.3 µM
COC1C(OC(C)=O)CC(=O)OC(C)C/C=C/C=C\C(O)C(C)CC(CC=O)C1OC1OC(C)C(OC2CC(C)(O)C(OC(=O)CC(C)C)C(C)O2)C(N(C)C)C1O (stereo not given) | MDA-MB-231 breast | > 100 µM

// recorded TGI for Cc1ccc2c(=O)c(C(=O)NNC(=S)NC3CCCCC3)c[nH]c2n1 : > 100 µM

// recorded TGI for C/C(=N\Nc1nc2ccccc2o1)c1cc2ccccc2cn1 : 8.75 µM

// recorded TGI for Brc1ccc(C2CC3(c4ccccc4)ON=C(c4ccccc4)N3c3ccccc3S2)cc1 (stereo not given) : > 100 µM

// recorded TGI for Cc1ccc(NC(=S)N=Nc2c(O)[nH]c3ccccc23)cc1 : > 100 µM

// recorded TGI for COc1ccc(-c2c3c(nc4[nH]c(=S)[nH]c(=S)c24)CCCC3)cc1OC : > 100 µM

* * *

System: MCF7 breast
Test: NCI tumour cell line growth inhibition, 48 h
value.type: TGI

# annotated cases, reported TGI shown
compound | TGI
COc1cc(=O)oc(/C=C/C=C/C=C/C(C)=C\C2(C)OC(C)C(C)(O)C2O)c1C (stereo not drawn) | > 100 µM
S=C(S)N1CCN(c2ccccc2)CC1 | > 100 µM

# input for lookup
// recorded TGI for CCOC(=O)/C=C/c1c[nH]c(=O)[nH]c1=O : > 75 µM

* * *

Test system: SF-268 CNS
Assay: NCI tumour cell line growth inhibition, 48 h
value.type: TGI (µM)
API: value field is a number in µM; no unit string.

compound | test.result
CCOC(=O)/C=C(/C(=O)OCC)n1ccc(=O)n(CC(=O)OCC)c1=O | 10.9

// recorded TGI for COc1cc(C2SCC(=O)N2NC(=O)c2ccc(NC(C)=O)cc2OC)ccc1O (stereo not given) : 99

// recorded TGI for CN1CCN(Cc2ccc(NC(=O)c3cccc(C#Cc4c(N)ncc5ccc(F)cc45)c3)cc2C(F)(F)F)CC1 : 1.58

* * *

Test system: COLO 205 colon
Assay: NCI tumour cell line growth inhibition, 48 h; in the data active = GI50 below about 0.43 µM; inactive = the rest
Write down the outcome that applies. Available outcomes: 1 = active, 0 = inactive

compound | system.name | class.assignment
N#Cc1ccc(NC(=O)Nc2nc3ccc(OC(F)(F)F)cc3s2)cc1 | COLO 205 colon | 0
C=C1C(=O)O[C@H]2[C@H]1CC/C(Cn1cc(-c3ccsc3)nn1)=C\CC[C@@]1(C)O[C@@H]21 | COLO 205 colon | 0
COc1c(N2CCN(CN3C(=O)C(=O)c4ccccc43)C(C)C2)c(F)cc2c(=O)c(C(=O)O)cn(C3CC3)c12 (stereo not drawn) | COLO 205 colon | 0
Cc1cc(C)c(O)c(CNCCCNCc2cc(C)cc(C)c2O)c1 | COLO 205 colon | 0
O=C1c2ccccc2-c2c1c1ccc([N+](=O)[O-])cc1c(=O)n2CCCn1ccnc1 | COLO 205 colon | 0
Cc1ccccc1C[P+](c1ccccc1)(c1ccccc1)c1ccccc1 | COLO 205 colon | 0
CC(=Nc1ccccc1)C1=C(O)C(Cc2ccc(F)cc2)NC1=O (stereo not drawn) | COLO 205 colon | 1
C#CCN(Cc1nc2cc(C(F)(F)F)ccc2nc1-c1ccccc1)c1ccc(F)cc1 | COLO 205 colon | 0
COc1ccccc1N1CCN(CCCOc2ccc(C(=O)/C=C3/C(=O)Nc4ccccc43)cc2)CC1 | COLO 205 colon | 0
COc1ccc2c(c1)c(-c1ccc(-c3cn(C)c4ccc(OC)cc34)o1)cn2C | COLO 205 colon | 0

Ask: For COC1C(O)CC(OC2CC(OC3CC(O[C@@H]4C(=O)c5c(cc6cc(OC7CC(OC8CC(O)C(O)C(C)O8)C(O)C(C)O7)c(C)c(O)c6c5O)CC4[C@H](OC)[C@@H](O)C(C)=O)OC(C)C3O)OC(C)C2O)OC1C (stereo partly drawn) , which call appears in the assay record?
Reply: 1

Ask: For Cc1ccc2c(c1)-c1oc(=O)c(-c3cc4ccccc4oc3=O)cc1C(O)O2 (stereo not drawn) , which call appears in the assay record?
Reply: 0

Ask: For CN1CCN(Cc2ccc(NC(=O)c3cccc(C#Cc4c(N)ncc5ccc(F)cc45)c3)cc2C(F)(F)F)CC1 , which call appears in the assay record?
Reply: 0

* * *

Test system: PC-3 prostate
Assay: NCI tumour cell line growth inhibition, 48 h
Form field: log10(TGI) (one value per entry).
Reminder: these figures are log10 of reported TGI, in µM before transformation.

molecule | value.type | test.result
CN[C@H]1CC[C@]23C[C@]24CC[C@]2(C)[C@@H]([C@H](C)N(C)C)CC[C@@]2(C)[C@@H]4CC[C@H]3C1(C)C | log10(TGI) | 1.46

// recorded log10(TGI) for Nc1nc(Cl)c(C=O)c(NCC2(CO)CCC2)n1 : 1.54

// recorded log10(TGI) for CSS(C)(=O)=O : 1.69

// recorded log10(TGI) for Cc1ccc(-n2c3c(c4c(CN)c(O)ccc42)CCc2ccccc2C3=O)cc1 : 1.29

// recorded log10(TGI) for CCNC1=C(NC(=O)CCl)C(=O)c2ccccc2C1=O : 1.48

// recorded log10(TGI) for N#CC1=C(S)N(C2OC(CO)C(O)C(O)C2O)C(c2ccccc2)=CC1c1cccs1 (stereo not given) : 1.49

* * *

Tested on: SF-539 CNS
Assay: NCI tumour cell line growth inhibition, 48 h
Form field: TGI (one value per entry).
API: value field is a number in µM; no unit string.

# annotated cases, reported TGI shown
molecule | TGI / µM
CC(=O)Oc1cc(Cl)c(OC(C)=O)c2c(OC(C)=O)c(C)c(O[Si](C)(C)C(C)(C)C)cc12 | 27.7
CCOC(=O)/C=C(/C(=O)OCC)n1ccc(=O)n(CC(=O)OCC)c1=O | 7.88
COc1cccc(NC(=O)c2ccc(NC3=C(Cl)C(=O)N(Cc4ccccc4)C3=O)cc2)c1 | 31
CC(C)C1=CC23CCC4C(C)(C(=O)O)CCCC4(C)C2CC1C1C(=O)N(c2cccc(N4C(=O)C5C6CC7C8(C)CCCC(C)(C(=O)O)C8CCC7(C=C6C(C)C)C5C4=O)c2)C(=O)C13 (centres undefined) | 57.7

# input for lookup
GET /values?item= CN1CCN(c2ccc(-c3cccc(CN4CCOCC4)c3)cc2NC(=O)c2c[nH]c(=O)cc2C(F)(F)F)CC1 &system= SF-539 CNS returns TGI: 44.7

* * *

Form field: TGI (one value per entry).
Tested on: DMS 273 small cell lung
Experiment: NCI tumour cell line growth inhibition, 48 h

molecule | value.type | test.result
COc1ccc2c(c1)C=C(C(C)(C)C)NS2(=O)=O | TGI | > 100 µM

// recorded TGI for CC1(C)Oc2ccccc2[N+]([O-])=C1c1ccccc1 : > 100 µM

// recorded TGI for C/C=C(\C)C(=O)N1c2ccccc2CC1c1c(C)[nH]c2ccccc12 (stereo unspecified) : > 100 µM

// recorded TGI for CC(CCC(=O)O)c1ccc(Br)cc1 (stereo unspecified) : > 100 µM

// recorded TGI for CCOc1ncnc2ccc(Cl)c(I)c12 : > 100 µM

// recorded TGI for CC(C)(C)C1CCC(=O)C(C(O)CC2CC(=O)N(c3ccccc3)C(=O)C2)C1 (stereo unspecified) : > 100 µM

// recorded TGI for CCN(CC)/[N+]([O-])=N/OCC(C)O (stereo unspecified) : > 100 µM

// recorded TGI for CC(=O)OC1(C#N)CC2OC1C1N=NN(C(=O)OC(C)(C)C)C21 (stereo unspecified) : > 100 µM

// recorded TGI for CC(=O)Oc1cc(Cl)c(OC(C)=O)c2c(OC(C)=O)c(C)c(O[Si](C)(C)C(C)(C)C)cc12 : 20 µM

// recorded TGI for CCCCC(N)CSSCC(N)CCCC (stereo unspecified) : 45.6 µM

// recorded TGI for COc1cc(OC)cc(C(=O)Cc2c(C(=O)c3ccccc3)c3ccccc3n2C(=O)c2ccccc2)c1 : > 100 µM

// recorded TGI for Fc1ccc2c(c1)cc1ccc3cccc4ccc2c1c34 : > 100 µM

// recorded TGI for CC(C)Cc1ccc(C(C)/C=C2\CCC(CN3CCCCC3)C2=O)cc1 (stereo unspecified) : 7.2 µM

// recorded TGI for CC(C)c1cc(C(=O)[O-])c(O)c(C(C)C)c1.CC(C)c1cc(C(=O)[O-])c(O)c(C(C)C)c1.CC(C)c1cc(C(=O)[O-])c(O)c(C(C)C)c1.CC(C)c1cc(C(=O)[O-])c(O)c(C(C)C)c1.CC(C)c1cc(C(=O)[O-])c(O)c(C(C)C)c1.CC(C)c1cc(C(=O)[O-])c(O)c(C(C)C)c1.[Cu+2].[Mn+2].[Mn+2] : > 100 µM

// recorded TGI for Nc1nc(CC2(O)CCCCC2)cc(-c2ccccc2)n1 : > 66 µM

// recorded TGI for COc1ccc(NS(=O)(=O)c2ccc(N=C3C=C(Nc4ccc(S(=O)(=O)Nc5ccc(OC)nn5)cc4)C(=O)c4ccccc43)cc2)nn1 : 28.4 µM
